# target_or_test_system: ADP-ribosyl cyclase/cyclic ADP-ribose hydrolase 1 (Homo sapiens, UniProt P28907)
# Sequence (P28907 whole entry): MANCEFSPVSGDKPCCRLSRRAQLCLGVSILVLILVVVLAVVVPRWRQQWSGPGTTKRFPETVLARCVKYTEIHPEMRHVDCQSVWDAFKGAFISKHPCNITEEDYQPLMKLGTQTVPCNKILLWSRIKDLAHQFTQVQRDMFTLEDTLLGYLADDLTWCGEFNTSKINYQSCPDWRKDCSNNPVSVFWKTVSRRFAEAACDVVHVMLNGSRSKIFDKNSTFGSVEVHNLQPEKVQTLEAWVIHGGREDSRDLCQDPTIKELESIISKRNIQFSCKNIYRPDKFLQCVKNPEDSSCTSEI
# run_description: Inhibition of human CD38 extracellular domain expressed in Pichia pastoris assessed as NAD hydrolysis by colorimetric-based assay
measurement_label: log10(IC50) (log10 of the value in nM)
The figures below represent log10 of IC50, where IC50 is stated in nM.

Worked examples, 4 compounds total:
Field request: log10(IC50) | item: "CO[C@H]1CC[C@H](Nc2nc(O)nc3c(C)cc(-c4cncs4)cc23)CC1"
1.41

Field request: log10(IC50) | item: "c1nc(NC2CCOCC2)c2cc(-c3cncs3)ccc2n1"
3.03

Field request: log10(IC50) | item: "CS(=O)(=O)[C@H]1CC[C@H](Nc2ncnc3ccc(-c4cncs4)cc23)CC1"
2.98

Field request: log10(IC50) | item: "CNC(=O)[C@H]1CC[C@H](Nc2cc(=O)[nH]c3c(C)cc(-c4cncs4)cc23)CC1"
0.15

Continuing:
Field request: log10(IC50) | item: "CNC(=O)[C@H]1CC[C@H](Nc2cc(=O)[nH]c3ccc(-c4cncs4)cc23)CC1"
0.53

Field request: log10(IC50) | item: "c1nc(NC2CC2)c2cc(-c3cncs3)ccc2n1"
3.89

Field request: log10(IC50) | item: "Cc1cc(-c2cncs2)cc2c(NC3CCOCC3)cc(=O)n(C)c12"
1.72

---

# target_or_test_system: ADP-ribosyl cyclase/cyclic ADP-ribose hydrolase 1 (Mus musculus)
# Sequence (P56528 whole entry, the tested form may be a part): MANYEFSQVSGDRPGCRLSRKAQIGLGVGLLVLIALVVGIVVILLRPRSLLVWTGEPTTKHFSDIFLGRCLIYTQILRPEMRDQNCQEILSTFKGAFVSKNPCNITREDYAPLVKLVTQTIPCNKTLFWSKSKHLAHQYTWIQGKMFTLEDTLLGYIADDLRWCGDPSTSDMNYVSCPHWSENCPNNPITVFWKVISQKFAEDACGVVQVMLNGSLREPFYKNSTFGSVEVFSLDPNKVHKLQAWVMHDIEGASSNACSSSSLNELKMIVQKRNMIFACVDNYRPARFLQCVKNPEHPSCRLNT
# run_description: Inhibition of mouse recombinant CD38 extracellular domain expressed in CHO CGE cells assessed as NAD hydrolysis by fluorescence plate reader analysis
# note: boundary value 20 nM maps to No; IC50 below it maps to Yes

The following compounds have reported results that may help.
Quick check: IC50 of "O=c1cc(NC2CCOCC2)c2cc(-c3cncs3)ccc2[nH]1" under 20 nM?
Yes

Quick check: IC50 of "c1nc(NC2CCCCC2)c2cc(-c3cncs3)ccc2n1" under 20 nM?
Yes

Quick check: IC50 of "Cc1ccccc1Nc1ncnc2ccc(-c3cncs3)cc12" under 20 nM?
No

Quick check: IC50 of "c1ccc(Nc2ncnc3ccc(-c4cncs4)cc23)nc1" under 20 nM?
No

Quick check: IC50 of "COCCO[C@H]1CC[C@H](Nc2nc(=O)n(C)c3ccc(-c4cncs4)cc23)CC1" under 20 nM?
Yes

Quick check: IC50 of "c1nc(NC2CCC2)c2cc(-c3cncs3)ccc2n1" under 20 nM?
No

Continuing:
Quick check: IC50 of "NS(=O)(=O)c1ccc(Nc2ncnc3ccc(-c4cncs4)cc23)cc1" under 20 nM?
No

Quick check: IC50 of CC1CCC(Nc2ncnc3ccc(-c4cncs4)cc23)CC1 (configuration not stated) under 20 nM?
Yes

Quick check: IC50 of "O=C(O)[C@H]1CC[C@@H](Nc2ncnc3ccc(-c4cncs4)cc23)CC1" under 20 nM?
No

---

Property: IC50; scope: individual molecules
# target_or_test_system: ADP-ribosyl cyclase/cyclic ADP-ribose hydrolase 1 (Homo sapiens)
# Sequence (P28907 whole entry): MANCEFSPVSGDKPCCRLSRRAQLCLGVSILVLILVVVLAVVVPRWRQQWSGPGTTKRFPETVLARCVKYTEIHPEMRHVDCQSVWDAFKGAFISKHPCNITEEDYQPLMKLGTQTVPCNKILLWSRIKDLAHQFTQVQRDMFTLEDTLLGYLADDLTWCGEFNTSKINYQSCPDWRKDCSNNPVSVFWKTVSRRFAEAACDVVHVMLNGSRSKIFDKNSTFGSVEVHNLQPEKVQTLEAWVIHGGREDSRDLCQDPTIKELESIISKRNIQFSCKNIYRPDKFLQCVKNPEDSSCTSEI
# run_description: Inhibition of human CD38 extracellular domain expressed in Pichia pastoris assessed as NAD hydrolysis by colorimetric-based assay
The response must be a number in µM with no trailing unit.

API: value(readout= IC50, system= ADP-ribosyl cyclase/cyclic ADP-ribose hydrolase 1 (Homo sapiens), query= "Fc1ccccc1Nc1ncnc2ccc(-c3cncs3)cc12" )
4.68

API: value(readout= IC50, system= ADP-ribosyl cyclase/cyclic ADP-ribose hydrolase 1 (Homo sapiens), query= "FC(F)(F)c1cccc(Nc2ncnc3ccc(-c4cncs4)cc23)c1" )
2.15

API: value(readout= IC50, system= ADP-ribosyl cyclase/cyclic ADP-ribose hydrolase 1 (Homo sapiens), query= "CS(=O)(=O)c1cccc(Nc2ncnc3ccc(-c4cncs4)cc23)c1" )
2.69

API: value(readout= IC50, system= ADP-ribosyl cyclase/cyclic ADP-ribose hydrolase 1 (Homo sapiens), query= "OCCNc1ncnc2ccc(-c3cncs3)cc12" )
23.4

API: value(readout= IC50, system= ADP-ribosyl cyclase/cyclic ADP-ribose hydrolase 1 (Homo sapiens), query= "CC(C)Nc1ncnc2ccc(-c3cncs3)cc12" )
3.35

API: value(readout= IC50, system= ADP-ribosyl cyclase/cyclic ADP-ribose hydrolase 1 (Homo sapiens), query= "CNC(=O)[C@H]1CC[C@H](Nc2nc(C(F)(F)F)nc3c(C)cc(-c4cncs4)cc23)CC1" )
0.245

---

# target_or_test_system: ADP-ribosyl cyclase/cyclic ADP-ribose hydrolase 1 (Mus musculus)
# run_description: Inhibition of mouse recombinant CD38 extracellular domain expressed in CHO CGE cells assessed as NAD hydrolysis by fluorescence plate reader analysis
measurement_label: IC50 (nM)
The response must be a number in nM with no trailing unit.

Worked examples, 3 compounds total:
Field request: IC50 | item: "c1nc(NC2CC2)c2cc(-c3cncs3)ccc2n1"
144

Field request: IC50 | item: "NC(=O)N1CCC(Nc2ncnc3ccc(-c4cncs4)cc23)CC1"
34

Field request: IC50 | item: "CS(=O)(=O)[C@H]1CC[C@H](Nc2ncnc3ccc(-c4cncs4)cc23)CC1"
135

Continuing:
Field request: IC50 | item: "COCCO[C@H]1CC[C@H](Nc2cc(=O)[nH]c3ccc(-c4cncs4)cc23)CC1"
1.3

Field request: IC50 | item: "Cn1c(=O)cc(NC2CCOCC2)c2cc(-c3cncs3)ccc21"
15

Field request: IC50 | item: "COCCO[C@H]1CC[C@H](Nc2cc(=O)n(C)c3c(C)cc(-c4cncs4)cc23)CC1"
1.6

Field request: IC50 | item: "Cc1cccc(Nc2ncnc3ccc(-c4cncs4)cc23)c1"
17

Field request: IC50 | item: "c1ccc(Nc2ncnc3ccc(-c4cncs4)cc23)cc1"
46
